molecular target: N-glycosylase/DNA lyase (Homo sapiens); details: Compound Concentration 10.0 uM, Hit No;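 also: OGG1 cleavage of a quenched duplex DNA oligonucleotide, coupled to APE1 for strand incision, read as fluorescence at 594 nm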
Description: Inhibition of OGG1 by quantifying inhibition of OGG1-mediated cleavage and dissociation of quenched duplex DNA oligonucleotides, measured as fluorescence at 594 nm. To generate a functional strand incision and increase turn-over this assay is coupled to APE1.
Where a SMILES comes first, the peptide text is derived from it.
So I've got a bunch of molecules here, and I need their inhibition values.
Hi! Could you send only the number? It should be in %, unit omitted.

## Task # return recorded inhibition for input Cc1c(NC(=O)COc2ccc(Cl)cc2C(=O)c2cc(F)cc(C(F)(F)F)c2)ccc(C(=O)O)c1F
## Result 35.9

## Task # return recorded inhibition for input COc1ccc(-c2ccc3cc(C(=O)O)ccc3c2)cc1C12CC3CC(CC(C3)C1)C2
## Result 34.6

## Task # return recorded inhibition for input Cc1c(C(=O)O)cc(-c2ccc(C3CCNCC3)cc2)c2ccc(-c3ccc(C(F)(F)F)cc3)cc12
## Result 11.4

## Task # return recorded inhibition for input N#Cc1cc(F)cc(-c2nc(-c3ccc(F)cn3)no2)c1
## Result -9.37

## Task # return recorded inhibition for input CC(=O)C1=C(C)N(c2cccc(C(F)(F)F)c2)C(=O)N[C@@H]1c1ccc(C#N)nc1
## Result -1.15

## Task # return recorded inhibition for input O=C(O)c1ccc(S(=O)(=O)N(Cc2ccc(OC(F)(F)F)cc2)c2ncc(C(F)(F)F)cc2Cl)cc1
## Result 15.6

## Task # return recorded inhibition for input CCOP(=O)(OCC)C(=Cc1cc(C(C)(C)C)c(O)c(C(C)(C)C)c1)P(=O)(OCC)OCC
## Result -1.84

## Task # return recorded inhibition for input FC(F)(F)c1ccccc1-c1cc(C(F)(F)F)c2[nH]c(C3=NOC4(CCCCC4)C3)nc2c1
## Result -6.32

## Task # return recorded inhibition for input FC(F)(F)c1ccc2c(c1)nc(-c1cccnc1)n2C1CC1
## Result -3.61

## Task # return recorded inhibition for input Cc1onc(O)c1CC(N)C(=O)O (centres undefined)
## Result -2.69

## Task # return recorded inhibition for input C[C@H](CCC(=O)O)[C@H]1CC[C@H]2[C@@H]3CC[C@@H]4C[C@H](O)CC[C@]4(C)[C@H]3CC[C@]12C
## Result 4.17

## Task # return recorded inhibition for input COc1cc(OC)c(NC(=O)c2ccc(Cc3cc4c(cc3C)C(C)(C)CCC4(C)C)o2)c(OC)c1
## Result 2.66

## Task # return recorded inhibition for input Cc1nc(C#Cc2ccnc(Cl)c2)c(C)n1-c1ccc(OC(F)(F)F)cc1
## Result -0.162

## Task # return recorded inhibition for input N#CC1(c2ccccn2)CCN(Cc2cc(C(=O)N3CCCC3)c(=O)n3ccccc23)CC1
## Result 13.7

## Task # return recorded inhibition for input CC(C)NC(=O)N1CC[C@H](NC2=Nc3cc(F)ccc3N(CC(F)F)c3ccc(Cl)cc32)C1
## Result -3.5

## Task # return recorded inhibition for input C[C@@H](N)Cc1c[nH]cn1
## Result -8

## Task # return recorded inhibition for input C[C@@H]1CCc2ncc(F)cc2[C@H]2CCCN2c2ccn3ncc(c3n2)C(=O)N1
## Result 2.29

## Task # return recorded inhibition for input CC[C@H](C)[C@H](NC(=O)[C@H](Cc1ccc(O)cc1)NC(=O)[C@@H](NC(=O)[C@H](CCCNC(=N)N)NC(=O)[C@@H](N)CC(=O)O)C(C)C)C(=O)N[C@@H](Cc1cnc[nH]1)C(=O)N[C@H](C)C(=O)O (HELM PEPTIDE1{D.R.V.Y.I.H.[dA]}$$$$V2.0)
## Result -9.35

## Task # return recorded inhibition for input Cc1ccnc(Nc2nc(-c3ccccn3)cs2)c1
## Result -1.19
